System: ATP;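 further: ATP exposure 15 min at 22 °C before imaging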
Assay: switch fluorescence ratio, 500 uM ATP over buffer (Cy3 cluster intensity, sum of 5 cycles each) (fold (ratio)); higher = stronger signal-on switching upon ATP binding; sequences stand for … in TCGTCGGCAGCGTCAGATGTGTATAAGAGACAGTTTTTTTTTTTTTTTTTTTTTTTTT…TC
Details: aptamer strand: ATP DNA aptamer (quencher-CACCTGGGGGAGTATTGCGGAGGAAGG + anchor), 100 nM annealed; ATP concentration: 500 uM
Measured switch fluorescence ratio by item
Lab note: jot down the number only; don't add units.

// solved cases for switch fluorescence ratio follow
{"Query Sequence": "GGTGTTAGGC", "switch fluorescence ratio": 1.01}
{"Query Sequence": "ATGATTTTTT", "switch fluorescence ratio": 0.985}
{"Query Sequence": "TGGTTTTCGC", "switch fluorescence ratio": 0.975}
{"Query Sequence": "TAGAGAAGTT", "switch fluorescence ratio": 1}
{"Query Sequence": "TACATCGTCC", "switch fluorescence ratio": 1.05}
{"Query Sequence": "AAGGCAGGGG", "switch fluorescence ratio": 1.05}

For the sequence "TTATAAAGGA" , what switch fluorescence ratio is on record? 1.05

For the sequence "GAAAAGAGGC" , what switch fluorescence ratio is on record? 1.1

---

System: ATP;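 further: ATP exposure 15 min at 22 °C before imaging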
Test: switch fluorescence ratio, 500 uM ATP over buffer (Cy3 cluster intensity, sum of 5 cycles each) (fold (ratio)); higher = stronger signal-on switching upon ATP binding; sequences stand for … in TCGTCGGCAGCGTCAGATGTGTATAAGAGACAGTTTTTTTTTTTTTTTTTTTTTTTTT…TC
Settings: aptamer strand: ATP DNA aptamer (quencher-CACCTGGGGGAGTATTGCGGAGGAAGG + anchor), 100 nM annealed; ATP concentration: 500 uM
Measured Attribute: switch fluorescence ratio
Lab note: jot down the number only; don't add units.

// solved cases for switch fluorescence ratio follow
{"Query Sequence": "GAGTTAACGG", "Endpoint Result": 1}
{"Query Sequence": "TGTTAATTGG", "Endpoint Result": 1.02}
{"Query Sequence": "TTCATTGGGA", "Endpoint Result": 1.01}
{"Query Sequence": "TTAATTAAAC", "Endpoint Result": 1.01}
{"Query Sequence": "TTAGGGGTGG", "Endpoint Result": 0.996}
{"Query Sequence": "AGGGGTACTT", "Endpoint Result": 1}
{"Query Sequence": "ATAATTCATC", "Endpoint Result": 1}
{"Query Sequence": "TTTTATGTAA", "Endpoint Result": 0.996}
{"Query Sequence": "TTGATTCATT", "Endpoint Result": 1.01}
{"Query Sequence": "TTGACTTTTT", "Endpoint Result": 0.991}

For the sequence "GGGTAGAAGT" , what switch fluorescence ratio is on record? 0.988

For the sequence "TGGGGTTATC" , what switch fluorescence ratio is on record? 0.993

For the sequence "GGGTTTGAT" , what switch fluorescence ratio is on record? 1.03

---

Measured switch fluorescence ratio by item
Test system: ATP;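 further: ATP exposure 15 min at 22 °C before imaging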
Assay: switch fluorescence ratio, 500 uM ATP over buffer (Cy3 cluster intensity, sum of 5 cycles each) (fold (ratio)); higher = stronger signal-on switching upon ATP binding; sequences stand for … in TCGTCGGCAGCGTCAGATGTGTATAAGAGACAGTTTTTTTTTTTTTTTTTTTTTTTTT…TC
Settings: aptamer strand: ATP DNA aptamer (quencher-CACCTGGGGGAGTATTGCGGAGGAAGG + anchor), 100 nM annealed; ATP concentration: 500 uM

// solved cases for switch fluorescence ratio follow
{"Query Sequence": "GCGTAGGTGT", "Endpoint Result": 1.09}
{"Query Sequence": "TGGCTTTGGT", "Endpoint Result": 0.986}
{"Query Sequence": "GGTACCATTG", "Endpoint Result": 0.991}
{"Query Sequence": "GTGCGGCCAA", "Endpoint Result": 1.02}

For the sequence "TAATAGGGCG" , what switch fluorescence ratio is on record? 1.01

For the sequence "TTGGGTAGCT" , what switch fluorescence ratio is on record? 0.996

For the sequence "TGGGAGACGG" , what switch fluorescence ratio is on record? 1.2

For the sequence "TATTTAAAAT" , what switch fluorescence ratio is on record? 0.995

For the sequence "TTCGCTGGGT" , what switch fluorescence ratio is on record? 0.995

For the sequence "AAAGGTTTGT" , what switch fluorescence ratio is on record? 1.02

For the sequence "TTTTAGTGCC" , what switch fluorescence ratio is on record? 1.01

For the sequence "AGGCTTAGGG" , what switch fluorescence ratio is on record? 1.03
